Target: Retinoic acid receptor RXR-alpha (Homo sapiens)
Assay: qHTS assay for small molecule antagonists of retinoid X receptor alpha signaling (AID 588546);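 also: cells stimulated with 9-cis-retinoic acid as agonist; % is scaled to controls: 0 for no effect and ±100 for the full control effect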
Details: HEK293T RXRa-UAS-bla, beta-lactamase ratio, antagonist mode
Source text: NIH Chemical Genomics Center [NCGC] U.S. Environmental Protection Agency [EPA] National Institutes of Environmental Health Sciences [NIEHS] National Toxicology Program [NTP] NCGC Assay Overview The Retinoid X receptor (RXR), a nuclear hormone receptor is expressed in liver, spleen, placenta, epidermis, central nervous system. […]
Inconclusive results are not listed.
Please respond with reported max response for every item in the list.
Hi! Could you send only the number? It should be in %, unit omitted.

// max response lookup, compound = CC(=O)CC(c1ccccc1)c1c(O)c2ccccc2oc1=O (centres undefined) , result: 8.9

The value of max response measured for the compound C[C@]12C=CC(=O)C=C1CC[C@@H]1[C@@H]2C(=O)C[C@@]2(C)[C@H]1CC[C@]2(O)C(=O)CO turned out to be -10.9

Documented max response of CCc1cc(C(N)=S)ccn1 : 10.8

So, Cc1ccnc2c1NC(=O)c1cccnc1N2C1CC1 ? Its max response was 11.4

response.value for Cc1cc(NS(=O)(=O)c2ccc(N)cc2)no1 (field: max response) = 6.61

// max response value for CC1=NN(c2ccccc2)C(=O)C1 : 23.1

Lab book: max response of COc1ccc2cc3[n+](cc2c1OC)CCc1cc2c(cc1-3)OCO2 noted as -28

GET /value?item= OC(Cn1cncn1)(Cn1cncn1)c1ccc(F)cc1F &field=max response returns 6.23

Form field max response, entry Cc1ncc([N+](=O)[O-])n1CCO : 26.4
